Origin of measurements: ChEMBL document CHEMBL1126557

# measurement_target: Thromboxane-A synthase (Homo sapiens, UniProt P24557)
# Sequence (P24557 whole entry): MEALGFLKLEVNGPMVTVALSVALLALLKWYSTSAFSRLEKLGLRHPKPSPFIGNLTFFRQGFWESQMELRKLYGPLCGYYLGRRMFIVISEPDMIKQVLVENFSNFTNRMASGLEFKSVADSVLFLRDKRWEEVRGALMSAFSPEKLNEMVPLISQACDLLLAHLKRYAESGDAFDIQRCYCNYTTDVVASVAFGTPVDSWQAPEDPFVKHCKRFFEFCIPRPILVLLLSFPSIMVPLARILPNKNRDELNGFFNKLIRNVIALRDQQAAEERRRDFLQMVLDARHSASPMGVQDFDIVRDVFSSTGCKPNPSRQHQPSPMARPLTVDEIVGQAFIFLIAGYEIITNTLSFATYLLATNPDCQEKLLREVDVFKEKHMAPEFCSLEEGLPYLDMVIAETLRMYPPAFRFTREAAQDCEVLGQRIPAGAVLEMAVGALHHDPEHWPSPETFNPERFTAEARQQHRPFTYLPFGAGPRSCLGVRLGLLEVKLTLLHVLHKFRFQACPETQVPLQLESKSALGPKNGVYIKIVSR
# protocol_notes: Tested in vitro against TXA2 synthetase inhibitory activity in human microsome
result_type: IC50 (nM)

1: Cn1nc(-c2cncs2)c2ccccc2c1=O
2: CCn1nc(-c2cccnc2)c2ccccc2c1=O
I would appreciate it if you could say which entry, 1 or 2 , has the lower IC50 value. Your answer should be the label of the entry you select. 2

###

# Species on record: Cavia porcellus
# protocol_notes: In vitro inhibitory effect on the spasmogen-contracted guinea pig tracheal strips in presence of acetylcholine
# Format: functional
# run_conditions: Trachea
pIC50: −log10 of the molar value.
result_type: pIC50

structure_smiles: Cn1nc(-c2cncs2)c2ccccc2c1=O
pIC50: 4.34
--
structure_smiles: Cn1c(=O)c2[nH]cnc2n(C)c1=O.Cn1c(=O)c2[nH]cnc2n(C)c1=O.NCCN
pIC50: 3.52
--
structure_smiles: CCn1nc(-c2cccnc2)c2ccccc2c1=O
pIC50: 4.24
